Origin of the recorded values: patent US20090281054A1

# System: M. avium complex (MAC)
# ASSAY_INFO: MIC by microdilution method in 7H9 broth
# Type: cell-based
# CONDITION_SUMMARY: Mycobacterium avium, MAC strain 104; read-out: MIC
MIC for assorted molecules
Just the number please, in µg/mL, no unit attached.

Some molecules with recorded MIC:
CC[C@@H](CO)NCCN[C@@H](CC)CO [EMB, ethambutol, reference compound] | 2
CO[C@H]1[C@@H](O)[C@H](n2ccc(=O)[nH]c2=O)O[C@@H]1[C@@H](O[C@H]1OC(C(=O)N[C@H]2CCC[C@@H](C)NC2=O)=C[C@H](O)[C@@H]1O)C(N)=O | 16

// lookup MIC for CO[C@H]1[C@@H](O)[C@H](n2ccc(=O)[nH]c2=O)O[C@@H]1[C@@H](O[C@H]1OC(C(=O)Nc2ccc(F)c(F)c2F)=C[C@H](O)[C@@H]1O)C(N)=O
1

Quick one: MIC for CC[C@H]1OC(=O)[C@H](C)[C@@H](O[C@H]2C[C@@](C)(OC)[C@@H](O)[C@H](C)O2)[C@H](C)[C@@H](O[C@@H]2O[C@H](C)C[C@H](N(C)C)[C@H]2O)[C@](C)(OC)C[C@@H](C)C(=O)[C@H](C)[C@@H](O)[C@]1(C)O [CLA, clarithromycin, reference compound] ?
0.5

MIC for CO[C@H]1[C@@H](O)[C@H](n2ccc(=O)[nH]c2=O)O[C@@H]1[C@@H](O[C@H]1OC(C(=O)Nc2ccc(F)c(C(F)(F)F)c2)=C[C@H](O)[C@@H]1O)C(N)=O ?
1
